test: Cataleptogenic effect in rats; settings: rat, in vivo, maximum effect 1-6 h after administration, read-out: ED50 in the catalepsy test
measured-parameter: ED50

Enquiry: Would you mind telling me what ED50 value was observed for CN1CCN([C@@H]2C[C@@H](c3ccc(F)cc3)c3ccc(F)cc32)CC1(C)C (racemic) ?
Return: > 68 µmol/kg

---

target: DA D1 receptor (Rattus norvegicus, UniProt P18901); assay: biochemical; format: binding; details: rat striatal membranes, 3H-SCH 23390; read-out: Receptor Binding; IC50, D1 3H-SCH
Sequence (P18901 whole entry): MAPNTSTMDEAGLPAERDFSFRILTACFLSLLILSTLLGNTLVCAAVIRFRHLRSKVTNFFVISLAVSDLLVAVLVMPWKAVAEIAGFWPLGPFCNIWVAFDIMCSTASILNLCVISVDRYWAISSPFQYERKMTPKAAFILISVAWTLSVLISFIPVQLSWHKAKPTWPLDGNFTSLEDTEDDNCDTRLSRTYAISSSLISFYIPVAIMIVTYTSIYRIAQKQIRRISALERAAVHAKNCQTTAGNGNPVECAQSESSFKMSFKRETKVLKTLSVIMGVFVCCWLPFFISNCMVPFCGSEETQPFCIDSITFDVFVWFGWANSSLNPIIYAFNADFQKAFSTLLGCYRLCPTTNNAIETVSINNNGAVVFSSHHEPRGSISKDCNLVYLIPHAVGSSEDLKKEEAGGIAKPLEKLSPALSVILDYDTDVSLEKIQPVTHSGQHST
IC50 values, listed per item
Answer in nM, number only, no unit symbol.

molecule	unit-info	IC50
CN1CCN([C@@H]2C[C@@H](c3ccc(F)cc3)c3cc(Cl)c(Cl)cc32)CC1(C)C (racemic)	nM	18
Fc1ccc(C2CC(N3CCN4CCCCC4C3)c3cc(F)ccc32)cc1 (centres unmarked)	nM	5.8
CN1CCN([C@@H]2C[C@@H](c3ccc(F)cc3)c3ccc(Cl)cc32)CC12CCCCC2 (racemic)	nM	6
Cc1ccc2c(c1)[C@H](N1CCNC(C)(C)C1)C[C@H]2c1ccc(F)cc1 (racemic)	nM	5.9
CC1(C)CN([C@@H]2C[C@@H](c3ccsc3)c3ccc(Cl)cc32)CCN1CCO (racemic)	nM	0.82
CC(C)N1CCN([C@@H]2C[C@@H](c3ccc(F)cc3)c3ccc(Cl)cc32)CC12CCCC2 (racemic)	nM	1.3
CC(C)C1CN([C@@H]2C[C@@H](c3ccc(F)cc3)c3ccc(Cl)cc32)CCN1 (relative stereo) [Compound 19]	nM	2.2
CC1(C)CN([C@@H]2C[C@@H](c3ccc(F)cc3)c3ccc(C(F)(F)F)cc32)CCN1 (racemic)	nM	2.8

Enquiry: Would you mind telling me what IC50 value was observed for CC(C)N1CCN([C@@H]2C[C@@H](c3ccc(F)cc3)c3ccc(Cl)cc32)CC1C (mixture of isomers) ?
Return: 1.6

Enquiry: Would you mind telling me what IC50 value was observed for Fc1ccc([C@@H]2C[C@@H](N3CCN4CCCCC4C3)c3cc(Cl)ccc32)cc1 (mixture of isomers) ?
Return: 2.1

Enquiry: Would you mind telling me what IC50 value was observed for CN1CCN([C@@H]2C[C@@H](c3ccsc3)c3ccc(Cl)cc32)CC12CCCC2 (racemic) ?
Return: 1.8

Enquiry: Would you mind telling me what IC50 value was observed for CC1(C)CN([C@@H]2C[C@@H](c3ccc(F)cc3)c3ccc(Cl)cc32)CCN1 (racemic) ?
Return: 2.1

Enquiry: Would you mind telling me what IC50 value was observed for CC1(C)CN([C@@H]2C[C@@H](c3ccc(F)cc3)c3ccc(Cl)cc32)CCN1CCCO (racemic) ?
Return: 1.8

Enquiry: Would you mind telling me what IC50 value was observed for CC1(C)CN([C@@H]2C[C@@H](c3ccc(F)cc3)c3ccc(Cl)cc32)CCN1CCO (racemic) ?
Return: 1
